Known AUC of viability dose-response curve of a selection of compounds
- Test system: NOMO1
- test: AUC of viability dose-response curve (% viability x log10 dose units); higher = less sensitive
- test-conditions: HPLM + 10% dialyzed FBS; 48 h
Simply state the number, no unit and no words.

Answered examples (4):
NC/1=N/C(=O)N(/C=C1F)[C@H]2CS[C@H](CO)O2
472
C/C(O)=C(\C#N)C(=O)Nc1cc(Br)ccc1Br
420
NC(=O)C1CCCc2c1[nH]c1ccc(Cl)cc21 (stereo not given)
370
N[S+](=O)([O-])c1cccc2c1C(=O)c1cccc(O)c1C2=O
434

Data request: Return reported AUC of viability dose-response curve; argument: "Cc1cc(Nc2cc(CN3CCOCC3)c3nc(C)c(Cc4ccc(Cl)cc4F)n3n2)[nH]n1"
Data returned: 429
